Measured values drawn from ChEMBL document CHEMBL1153576 for this set.

test system: Staphylococcus aureus; assay: Antibacterial activity against Staphylococcus aureus ATCC 29213 after 16 to 22 hrs by broth microdilution method; assay type: functional
observable: MIC (µg/mL)
The reply should contain only the number, in µg/mL.

Per the records, this compound ( CC[C@H]1OC(=O)[C@H](C)[C@@H](O[C@H]2C[C@@](C)(OC)[C@@H](O)[C@H](C)O2)[C@H](C)[C@@H](O[C@@H]2O[C@H](C)C[C@H](N(C)C)[C@H]2O)[C@](C)(O)C[C@@H](C)CN(CCCNC(=O)NC(C)c2cccc3ccccc23)[C@H](C)[C@@H](O)[C@]1(C)O (stereo partly specified) ) has MIC equal to 1

###

tested on: Escherichia coli; assay: Antibacterial activity against Escherichia coli ATCC 25922 after 16 to 22 hrs by broth dilution method; assay type: functional
Reported MIC is given for each of the following compounds.
The reply should contain only the number, in µg/mL.

INSERT INTO results (smilesstring, measuredon, resultvalue) VALUES
  ('CC[C@H]1OC(=O)[C@H](C)[C@@H](O[C@H]2C[C@@](C)(OC)[C@@H](O)[C@H](C)O2)[C@H](C)[C@@H](O[C@@H]2O[C@H](C)C[C@H](N(C)C)[C@H]2O)[C@](C)(O)C[C@@H](C)CN(CCCN(CCC#N)C(=O)NC(C)C)[C@H](C)[C@@H](O)[C@]1(C)O', 'Escherichia coli', 16);

Note: attention shifts to another entry.
MIC for Escherichia coli with input CC[C@H]1OC(=O)[C@H](C)[C@@H](O[C@H]2C[C@@](C)(OC)[C@@H](O)[C@H](C)O2)[C@H](C)[C@@H](O[C@@H]2O[C@H](C)C[C@H](N(C)C)[C@H]2O)[C@](C)(O)C[C@@H](C)CN(CCCN(CCC#N)C(=O)Nc2ccccc2)[C@H](C)[C@@H](O)[C@]1(C)O equals 32

###

tested on: Staphylococcus aureus; assay: Antibacterial activity against Staphylococcus aureus ATCC 29213 after 16 to 22 hrs by broth microdilution method; format: functional
Reported MIC is given for each of the following compounds.

INSERT INTO assay_data (compound, resultvalue) VALUES
  ('CC[C@H]1OC(=O)[C@H](C)[C@@H](O[C@H]2C[C@@](C)(OC)[C@@H](O)[C@H](C)O2)[C@H](C)[C@@H](O[C@@H]2O[C@H](C)C[C@H](N(C)C)[C@H]2O)[C@](C)(O)C[C@@H](C)CN(CCCN(CCC#N)C(=O)NC(C)c2cccc3ccccc23)[C@H](C)[C@@H](O)[C@]1(C)O (some centres not stated)', '2 µg/mL');

Per the records, this compound ( CC[C@H]1OC(=O)[C@H](C)[C@@H](O[C@H]2C[C@@](C)(OC)[C@@H](O)[C@H](C)O2)[C@H](C)[C@@H](O[C@@H]2O[C@H](C)C[C@H](N(C)C)[C@H]2O)[C@](C)(O)C[C@@H](C)CN(CCCNC(=S)NCc2ccccc2)[C@H](C)[C@@H](O)[C@]1(C)O ) has MIC equal to 0.5 µg/mL

Per the records, this compound ( CC[C@H]1OC(=O)[C@H](C)[C@@H](O[C@H]2C[C@@](C)(OC)[C@@H](O)[C@H](C)O2)[C@H](C)[C@@H](O[C@@H]2O[C@H](C)C[C@H](N(C)C)[C@H]2O)[C@](C)(O)C[C@@H](C)CN(CCCNC(=O)Nc2ccc3ccccc3c2)[C@H](C)[C@@H](O)[C@]1(C)O ) has MIC equal to 1 µg/mL

Per the records, this compound ( CC[C@H]1OC(=O)[C@H](C)[C@@H](O[C@H]2C[C@@](C)(OC)[C@@H](O)[C@H](C)O2)[C@H](C)[C@@H](O[C@@H]2O[C@H](C)C[C@H](N(C)C)[C@H]2O)[C@](C)(O)C[C@@H](C)CN(CCCNC(=S)Nc2ccccc2)[C@H](C)[C@@H](O)[C@]1(C)O ) has MIC equal to 0.5 µg/mL

###

Reported log10 MIC is given for each of the following compounds.
test system: Haemophilus influenzae; test: Antibacterial activity against Haemophilus influenzae ATCC 49247 after 16 to 22 hrs by broth dilution method; type: functional
Remember, log10 of MIC, in µg/mL.

INSERT INTO results (compound, resultvalue) VALUES
  ('CC[C@H]1OC(=O)[C@H](C)[C@@H](O[C@H]2C[C@@](C)(OC)[C@@H](O)[C@H](C)O2)[C@H](C)[C@@H](O[C@@H]2O[C@H](C)C[C@H](N(C)C)[C@H]2O)[C@](C)(O)C[C@@H](C)CN(CCCNC(=O)NCCc2ccccc2)[C@H](C)[C@@H](O)[C@]1(C)O', 1.20);

Per the records, this compound ( CC[C@H]1OC(=O)[C@H](C)[C@@H](O[C@H]2C[C@@](C)(OC)[C@@H](O)[C@H](C)O2)[C@H](C)[C@@H](O[C@@H]2O[C@H](C)C[C@H](N(C)C)[C@H]2O)[C@](C)(O)C[C@@H](C)CN(CCCN(CCC#N)C(=O)NCCc2ccccc2)[C@H](C)[C@@H](O)[C@]1(C)O ) has log10 MIC equal to 1.51

Per the records, this compound ( CC[C@H]1OC(=O)[C@H](C)[C@@H](O[C@H]2C[C@@](C)(OC)[C@@H](O)[C@H](C)O2)[C@H](C)[C@@H](O[C@@H]2O[C@H](C)C[C@H](N(C)C)[C@H]2O)[C@](C)(O)C[C@@H](C)CN(CCCN(CCC#N)C(=S)NCCCc2ccccc2)[C@H](C)[C@@H](O)[C@]1(C)O ) has log10 MIC equal to 0.60

Per the records, this compound ( CC[C@H]1OC(=O)[C@H](C)[C@@H](O[C@H]2C[C@@](C)(OC)[C@@H](O)[C@H](C)O2)[C@H](C)[C@@H](O[C@@H]2O[C@H](C)C[C@H](N(C)C)[C@H]2O)[C@](C)(O)C[C@@H](C)CN(CCCNC(=O)Nc2ccccc2)[C@H](C)[C@@H](O)[C@]1(C)O ) has log10 MIC equal to 0.90

Per the records, this compound ( CC[C@H]1OC(=O)[C@H](C)[C@@H](O[C@H]2C[C@@](C)(OC)[C@@H](O)[C@H](C)O2)[C@H](C)[C@@H](O[C@@H]2O[C@H](C)C[C@H](N(C)C)[C@H]2O)[C@](C)(O)C[C@@H](C)CN(CCCN(CCC#N)C(=S)NCc2ccccc2)[C@H](C)[C@@H](O)[C@]1(C)O ) has log10 MIC equal to 0.60

Per the records, this compound ( CC[C@H]1OC(=O)[C@H](C)[C@@H](O[C@H]2C[C@@](C)(OC)[C@@H](O)[C@H](C)O2)[C@H](C)[C@@H](O[C@@H]2O[C@H](C)C[C@H](N(C)C)[C@H]2O)[C@](C)(O)C[C@@H](C)CN(CCCN(CCC#N)C(=S)Nc2ccccc2)[C@H](C)[C@@H](O)[C@]1(C)O ) has log10 MIC equal to 1.20

Per the records, this compound ( CC[C@H]1OC(=O)[C@H](C)[C@@H](O[C@H]2C[C@@](C)(OC)[C@@H](O)[C@H](C)O2)[C@H](C)[C@@H](O[C@@H]2O[C@H](C)C[C@H](N(C)C)[C@H]2O)[C@](C)(O)C[C@@H](C)CN(CCCNC(=O)NC(C)C)[C@H](C)[C@@H](O)[C@]1(C)O ) has log10 MIC equal to 1.20

###

system: Staphylococcus aureus; experiment: Antibacterial activity against Staphylococcus aureus ATCC 29213 after 16 to 22 hrs by broth microdilution method; type: functional
observable: MIC (µg/mL)
The reply should contain only the number, in µg/mL.

Solved entries:
INSERT INTO measurements (compound, measuredon, resultvalue) VALUES
  ('CC[C@H]1OC(=O)[C@H](C)[C@@H](O[C@H]2C[C@@](C)(OC)[C@@H](O)[C@H](C)O2)[C@H](C)[C@@H](O[C@@H]2O[C@H](C)C[C@H](N(C)C)[C@H]2O)[C@](C)(O)C[C@@H](C)CN(C)[C@H](C)[C@@H](O)[C@]1(C)O [AZITHROMYCIN]', 'Staphylococcus aureus', 0.5),
  ('CC[C@H]1OC(=O)[C@H](C)[C@@H](O[C@H]2C[C@@](C)(OC)[C@@H](O)[C@H](C)O2)[C@H](C)[C@@H](O[C@@H]2O[C@H](C)C[C@H](N(C)C)[C@H]2O)[C@](C)(O)C[C@@H](C)CN(CCCNC(=S)Nc2cccc3ccccc23)[C@H](C)[C@@H](O)[C@]1(C)O', 'Staphylococcus aureus', 1),
  ('CC[C@H]1OC(=O)[C@H](C)[C@@H](O[C@H]2C[C@@](C)(OC)[C@@H](O)[C@H](C)O2)[C@H](C)[C@@H](O[C@@H]2O[C@H](C)C[C@H](N(C)C)[C@H]2O)[C@](C)(O)C[C@@H](C)CN(CCCNC(=O)NC(C)C)[C@H](C)[C@@H](O)[C@]1(C)O', 'Staphylococcus aureus', 2);

Note: attention shifts to another entry.
Per the records, this compound ( CC[C@H]1OC(=O)[C@H](C)[C@@H](O[C@H]2C[C@@](C)(OC)[C@@H](O)[C@H](C)O2)[C@H](C)[C@@H](O[C@@H]2O[C@H](C)C[C@H](N(C)C)[C@H]2O)[C@](C)(O)C[C@@H](C)CN(CCCN(CCC#N)C(=S)Nc2ccccc2)[C@H](C)[C@@H](O)[C@]1(C)O ) has MIC equal to 2
